Values were extracted from PubChem BioAssay AID330.

- System: P388 leukemia ip, CD2F1 mice, survival T/C
- TEST_PROTOCOL: NCI In Vivo Anticancer Drug Screen. Data for tumor model P388 Leukemia (intraperitoneal) in CD2F1 (CDF1) mice
- SETUP_CONDITIONS: endpoint: median survival time; dose: 12.5 mg/kg/injection; schedule: Q01DX009 (ip); vehicle: saline with Tween-80; higher = longer survival
Inconclusive results and toxic doses are left out.
REPORTED_METRIC: T/C

Known T/C results, listed for orientation:
Clc1cc2c(nn1)Nc1ccccc1S2; 97 % of control
O=C1C(=C(C(F)(F)F)C(F)(F)F)C2CCC1C2 (stereo unspecified); 100 % of control
O=C(/C=C/c1ccc(OCc2ccccc2)cc1)c1ccc(C(F)(F)F)cc1; 94 % of control
N#CC(Br)(CBr)COc1ccc(Cl)cc1Cl (stereo unspecified); 100 % of control
Cc1cccc2c(C(=O)O)cc(-c3ccc(Cl)cc3)nc12; 104 % of control
Cc1c(-c2ccccc2)ccnc1/C=N/NC(=S)NCc1cccnc1; 98 % of control
Cc1cc(N(C)C)nc2cc(N)ccc12; 103 % of control
CC(/C=N\NC(=S)SCc1ccccc1)=N/N=C(N)N; 95 % of control
Oc1ccccc1C=Nc1cccnc1; 96 % of control
COC1/C=C/OC2(C)Oc3c(C)c(O)c4c(O)c(c(/C=N/N5C(C)CN(Cc6ccccc6C#N)CC5C)c(O)c4c3C2=O)NC(=O)/C(C)=C\C=C\C(C)C(O)C(C)C(O)C(C)C(OC(C)=O)C1C (stereo unspecified); 111 % of control

Record T/C per entry; entries follow.
1. CC(C)C1C(=O)NC(c2ccc(N)cc2)c2ccccc21 (stereo unspecified)
2. CC12CC[C]([Hg][I])(CC1)C2(C)C
3. C=C(C)C(O)C(O)c1cc2ccc(=O)oc2cc1OC (stereo unspecified)
4. Nc1nnc(SCc2ccccc2)s1
5. OC(CC1CCCCN1)c1cc2c(Cl)cc(Cl)cc2c2cc(C(F)(F)F)ccc12 (stereo unspecified)
6. CCCCOP(=O)(O)OCCCC.[V]

OUTPUT:
["104 % of control", "112 % of control", "99 % of control", "109 % of control", "95 % of control", "96 % of control"]

* * *

Task for the reader: assign each of the following compounds its reported T/C.
- Tested on: P388 leukemia ip, CD2F1 mice, survival T/C
- TEST_PROTOCOL: NCI In Vivo Anticancer Drug Screen. Data for tumor model P388 Leukemia (intraperitoneal) in CD2F1 (CDF1) mice
- SETUP_CONDITIONS: endpoint: median survival time; dose: 200.0 mg/kg/injection; schedule: Q01DX001 (ip); vehicle: saline with Tween-80; higher = longer survival
- Procedure: The antitumor activity of compounds was measured in mice bearing transplantable tumors. Survival or tumor size were measured and the results are expressed as the measurement made in the treated group (T) divided by the measurement made in the vehicle treated control group (C). The tumor model used in this assay is P388 Leukemia (intraperitoneal) in CD2F1 (CDF1) mice
Toxic doses and inconclusive results are not listed.

Examples from the recorded data:
COc1ccc2c(c1)C(C)(C#N)N(C)C(=O)C2=O (stereo not drawn); 101 % of control
CCOC(=O)CCCCCO; 104 % of control
CCOC(=O)c1c(Cl)c(-c2ccccc2)c(=O)n2c1[nH]c1ccccc12; 101 % of control

Consider the following items and state reported T/C for each.
1. CC(C(O)CO)n1cnc2c(NCC(O)CO)ncnc21 (stereo not drawn)
2. CCOC(=O)Nc1cc2ncc(-c3ccccc3)nc2c(N)n1
3. C/C(=N\OC(=O)CNOC(C)(C)C)c1ccccn1
4. c1ccc(-c2nnc(-c3ccccc3)c3c2nn2ccc4ccccc4c32)cc1
5. CC1(C)Cc2nn3c(c2C(=O)O1)CC(c1ccccc1)c1ccccc1-3 (stereo not drawn)
6. O=c1[nH]c(=O)c2ncsc2[nH]1
7. COC(=O)Nc1c2ccccc2nc2c1c(C)c(C)c1ccccc12

OUTPUT:
1. 107 % of control
2. 90 % of control
3. 99 % of control
4. 89 % of control
5. 89 % of control
6. 118 % of control
7. 88 % of control

Look at each compound and report its T/C.
1. O=S(=O)(Nc1cccc(NS(=O)(=O)c2ccccc2)n1)c1ccccc1
2. CCCCOCN(COCCCC)c1ccccc1

OUTPUT:
1: 91 % of control; 2: 113 % of control

INPUT: Name the value of T/C reported for `Cc1nn(C(=S)S)c(C)c1N=Nc1cccc(Cl)c1Cl` when tested on P388 leukemia ip, CD2F1 mice, survival T/C.
OUTPUT: 94 % of control
